B1: Activity-dependent neuroprotector homeobox protein, residues 770 to 810; numbered along this chain, Q9H2P0 (parent)
chain: FLTKYFNKQPYPTRREIEKLAASLWLWKSDIASHFSNKRKK

# Variants of: B1
# experiment description: abundance fitness (aPCA) (normalised: wild type 0, dead -1); higher = more abundant; growth selection in yeast, the domain comes from the species named
# measurement context: Homo sapiens
readout type: abundance fitness

[[record]]
mutation_label = "S36C"
value_reported = -0.006

[[record]]
mutation_label = "Q9C"
value_reported = -0.014

[[record]]
mutation_label = "Q9F"
value_reported = -0.233

[[record]]
mutation_label = "E16K"
value_reported = 0.095

[[record]]
mutation_label = "K28T"
value_reported = 0.18

[[record]]
mutation_label = "W25S"
value_reported = 0.134

[[record]]
mutation_label = "S33R"
value_reported = 0.032

[[record]]
mutation_label = "F35T"
value_reported = -0.229

[[record]]
mutation_label = "L2D"
value_reported = -0.822

[[record]]
mutation_label = "K8P"
value_reported = -1.11

[[record]]
mutation_label = "N37R"
value_reported = -0.081

[[record]]
mutation_label = "F6I"
value_reported = -0.237

[[record]]
mutation_label = "T3N"
value_reported = 0.167

